Reference source: paper PMC5344920

tested target: recombinant human GS (GSH synthetase, glutathione synthetase) (Homo sapiens)
Construct: commercial recombinant protein (Abcam, Cambridge, UK), labelled on amines with BLUE-NHS dye
Sequence (P48637 2-474): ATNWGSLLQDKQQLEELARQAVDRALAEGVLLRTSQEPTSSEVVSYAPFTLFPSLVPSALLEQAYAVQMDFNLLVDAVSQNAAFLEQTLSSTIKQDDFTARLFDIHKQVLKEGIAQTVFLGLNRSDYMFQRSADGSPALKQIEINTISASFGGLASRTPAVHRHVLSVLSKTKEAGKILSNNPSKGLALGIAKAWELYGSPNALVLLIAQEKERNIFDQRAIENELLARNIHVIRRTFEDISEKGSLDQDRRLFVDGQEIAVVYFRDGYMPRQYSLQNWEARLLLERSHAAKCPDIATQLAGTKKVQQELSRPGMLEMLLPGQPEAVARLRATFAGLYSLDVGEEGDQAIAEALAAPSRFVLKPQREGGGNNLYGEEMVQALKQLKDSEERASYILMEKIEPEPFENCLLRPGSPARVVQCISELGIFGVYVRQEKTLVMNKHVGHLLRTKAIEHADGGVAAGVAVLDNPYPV
assay text: microscale thermophoresis, BLUE-NHS labelled protein
experimental setup: read-out: equilibrium binding constant
measure name: Kd (µM)

INSERT INTO measurements (molecule, numeric_value) VALUES
  ('O=C(Nc1ccc([N+](=O)[O-])cc1Cl)c1cc(Cl)ccc1O [niclosamide]', 5.64);
